assay: Absorption spectra obtained in toluene at room temperature; assay type: physicochemical; conditions: Table 1; in toluene at room temperature
assay.readout: λmax (nm), B

>  <mol>
Cc1ccc(-c2c3nc(c(-c4c(C)cc(C)cc4C)c4cc5c([nH]4)c(c4nc(cc6ccc2[nH]6)C(C)(C)C4)CC5=O)C=C3)cc1

>  <λmax (nm), B>
417

$$$$
>  <mol>
Cc1ccc(C2=c3ccc4[n]3[Zn][n]3c(cc(Br)c3C=C3CC(C)(C)C(=N3)C=4)C(c3c(C)cc(C)cc3C)=C3C=CC2=N3)cc1

>  <λmax (nm), B>
414

$$$$
>  <mol>
CC(=O)c1cc2[nH]c1cc1nc(cc3ccc([nH]3)c(-c3ccc(C)cc3)c3nc(c2-c2c(C)cc(C)cc2C)C=C3)C(C)(C)C1

>  <λmax (nm), B>
422

$$$$
>  <mol>
CC(=O)c1cc2[n-]c1cc1nc(cc3ccc([n-]3)c(-c3ccc(C)cc3)c3nc(c2-c2c(C)cc(C)cc2C)C=C3)C(C)(C)C1.[Cu+2]

>  <λmax (nm), B>
420

$$$$
>  <mol>
CC(=O)c1cc2[n]3c1=CC1=NC(=Cc4ccc([n]4[Zn]3)C(c3ccc(C)cc3)=C3C=CC(=N3)C=2c2c(C)cc(C)cc2C)C(C)(C)C1

>  <λmax (nm), B>
424

$$$$

Entry source: patent US8207329B2
